# experiment.description: refractive index (Na D-line) (dimensionless); xn = mol fraction of the nth substance listed
# cond: 293.15 K; 101 kPa; Liquid; Standard Abbe refractometry; x1 = 0.15
readout.name: refractive index
No unit in the answer, only the number.

Lookup result for C=C[Si](C)(C)O[Si](C)(C)C=C [1,3-diethenyl-1,1,3,3-tetramethyldisiloxane] + COc1ccccc1 ; measured refractive index: 1.49073

Lookup result for C=C[Si](C)(C)O[Si](C)(C)C=C [1,3-diethenyl-1,1,3,3-tetramethyldisiloxane] + O=[N+]([O-])c1ccccc1 ; measured refractive index: 1.51705

Lookup result for C=C[Si](C)(C)O[Si](C)(C)C=C [1,3-diethenyl-1,1,3,3-tetramethyldisiloxane] + Fc1ccccc1 ; measured refractive index: 1.45063

Lookup result for C=C[Si](C)(C)O[Si](C)(C)C=C [1,3-diethenyl-1,1,3,3-tetramethyldisiloxane] + Clc1ccccc1 ; measured refractive index: 1.49487
